Values were extracted from patent US20210246166A1.

Biological target: T1, recombinant human MASP1 active protease (amino acids 297-699, C-terminal His Tag) (human, UniProt P48740 297-699)
T1 sequence: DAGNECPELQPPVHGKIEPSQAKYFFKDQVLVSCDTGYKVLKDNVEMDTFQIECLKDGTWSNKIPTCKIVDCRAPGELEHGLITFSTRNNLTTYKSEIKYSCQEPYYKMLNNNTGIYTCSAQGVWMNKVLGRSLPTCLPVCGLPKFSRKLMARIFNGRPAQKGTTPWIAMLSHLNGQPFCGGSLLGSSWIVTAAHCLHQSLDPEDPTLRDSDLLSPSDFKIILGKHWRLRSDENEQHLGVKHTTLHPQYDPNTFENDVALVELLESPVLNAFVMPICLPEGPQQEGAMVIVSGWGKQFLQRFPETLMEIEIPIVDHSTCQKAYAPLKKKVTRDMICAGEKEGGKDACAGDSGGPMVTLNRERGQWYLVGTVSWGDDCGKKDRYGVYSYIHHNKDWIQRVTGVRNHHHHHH
Assay: cell-based or functional assay
Numbered stars: 1 amine (or outer) side, 2 acyl side, 3 side chain; on linkers, the order of the positions; unused ones are H or OH. Bridge positions count the residues as written; N and C are the ends. Square brackets hold non-standard residues; d marks the D form. Ends that are not written are not given here. * marks the point of attachment. X9 = (S)‑3‑(1-Pyrrolidine-2-yl)‑propionic acid, O=C(CC[C@@H]1CCCN1[*:1])[*:2]; (Me)R = N(5)-methyl-L-arginine, CN(CCC[C@H](N[*:1])C(=O)[*:2])C(=N)N; Oic = O=C(O)[C@@H]1C[C@@H]2CCCC[C@@H]2N1; Butanoyl(3,3-Me2) = CC(C)(C)CC(=O)*; NMeI = CC[C@H](C)[C@H](NC)C(=O)O; tBuAla = CC(C)(C)C[C@H](N)C(=O)O; Pen = CC(C)(S)[C@H](N)C(=O)O; Sar = CNCC(=O)O
Label fulfilled when human MASP1 IC50 is strictly below 20 nM; otherwise label not fulfilled.

* {(2S,3S)‑2‑(2-Oxopiperazin-1-yl)‑3‑methylpentanoic acid}-CSRSLPPICIPD-OH (disulfide 1-9) [Example 397: ((2S,3S)-2-[2-Oxopiperazin-1-yl]-3-methylpentanoic acid)-C+SRSLPPIC+IPD-OH] | not fulfilled
* GICSRSLP[Oic]ICIPD-OH (disulfide 3-11; N-terminus assumed; SMILES CC[C@H](C)[C@H](NC(=O)CN)C(=O)N[C@H]1CSSC[C@@H](C(=O)N[C@H](C(=O)N2CCC[C@H]2C(=O)N[C@@H](CC(=O)O)C(=O)O)[C@@H](C)CC)NC(=O)[C@H]([C@@H](C)CC)NC(=O)[C@@H]2C[C@@H]3CCCC[C@@H]3N2C(=O)[C@@H]2CCCN2C(=O)[C@H](CC(C)C)NC(=O)[C@H](CO)NC(=O)[C@H](CCCNC(=N)N)NC(=O)[C@H](CO)NC1=O) [Example 323: GIC+SRSLP-(Oic)-IC+IPD-OH] | fulfilled
* {Butanoyl(3,3-Me2)}-ICSRS[tBuAla]PPI[Pen]I-NH2 (disulfide 2-10; SMILES CC[C@H](C)[C@H](NC(=O)[C@H]1NC(=O)[C@H]([C@@H](C)CC)NC(=O)[C@@H]2CCCN2C(=O)[C@@H]2CCCN2C(=O)[C@H](CC(C)(C)C)NC(=O)[C@H](CO)NC(=O)[C@H](CCCNC(=N)N)NC(=O)[C@H](CO)NC(=O)[C@@H](NC(=O)[C@@H](NC(=O)CC(C)(C)C)[C@@H](C)CC)CSSC1(C)C)C(N)=O) [Example 396: (tert-Butylacetic acid)-IC+SRS-((tBu)A)-PPI-(Pen)+I-NH2] | not fulfilled
* ICSRSLP[Oic]I[Pen]I-OH (disulfide 2-10; N-terminus assumed; SMILES CC[C@H](C)[C@H](N)C(=O)N[C@H]1CSSC(C)(C)[C@@H](C(=O)N[C@H](C(=O)O)[C@@H](C)CC)NC(=O)[C@H]([C@@H](C)CC)NC(=O)[C@@H]2C[C@@H]3CCCC[C@@H]3N2C(=O)[C@@H]2CCCN2C(=O)[C@H](CC(C)C)NC(=O)[C@H](CO)NC(=O)[C@H](CCCNC(=N)N)NC(=O)[C@H](CO)NC1=O) [Example 368: IC+SRSLP-(Oic)-I-(Pen)+I-OH] | not fulfilled
* AICSRSLP[3,3‑dimethyl‑1,3‑azasilolidine‑5‑carboxylic acid]ICIPD-NH2 (disulfide 3-11) [Example 326: AIC+SRSLP-(3,3-dimethyl-1,3-azasilolidine-5-carboxylic acid)-IC+IPD-NH2] | not fulfilled
* AICS[(Me)R]S[tBuAla]PPI[Pen]IPD-NH2 (disulfide 3-11; N-terminus assumed; SMILES CC[C@H](C)[C@H](NC(=O)[C@H](C)N)C(=O)N[C@H]1CSSC(C)(C)[C@@H](C(=O)N[C@H](C(=O)N2CCC[C@H]2C(=O)N[C@@H](CC(=O)O)C(N)=O)[C@@H](C)CC)NC(=O)[C@H]([C@@H](C)CC)NC(=O)[C@@H]2CCCN2C(=O)[C@@H]2CCCN2C(=O)[C@H](CC(C)(C)C)NC(=O)[C@H](CO)NC(=O)[C@H](CCCN(C)C(=N)N)NC(=O)[C@H](CO)NC1=O) [Example 403: AIC+S-((Me)R)-S-((tBu)A)-PPI-(Pen)+IPD-NH2] | not fulfilled
* [NMeI]CSRS[tBuAla]PPI[Pen]IP-NH2 (disulfide 2-10; N-terminus assumed; SMILES CC[C@H](C)[C@H](NC)C(=O)N[C@H]1CSSC(C)(C)[C@@H](C(=O)N[C@H](C(=O)N2CCC[C@H]2C(N)=O)[C@@H](C)CC)NC(=O)[C@H]([C@@H](C)CC)NC(=O)[C@@H]2CCCN2C(=O)[C@@H]2CCCN2C(=O)[C@H](CC(C)(C)C)NC(=O)[C@H](CO)NC(=O)[C@H](CCCNC(=N)N)NC(=O)[C@H](CO)NC1=O) [Example 379: ((N-Me)I)-C+SRS-((tBu)A)-PPI-(Pen)+IP-NH2] | not fulfilled
* [Sar]ICSRSLP[Oic]I[Pen]IP[X9]-OH (disulfide 3-11; N-terminus assumed; SMILES CC[C@H](C)[C@H](NC(=O)CNC)C(=O)N[C@H]1CSSC(C)(C)[C@@H](C(=O)N[C@H](C(=O)N2CCC[C@H]2C(=O)N2CCC[C@H]2CCC(=O)O)[C@@H](C)CC)NC(=O)[C@H]([C@@H](C)CC)NC(=O)[C@@H]2C[C@@H]3CCCC[C@@H]3N2C(=O)[C@@H]2CCCN2C(=O)[C@H](CC(C)C)NC(=O)[C@H](CO)NC(=O)[C@H](CCCNC(=N)N)NC(=O)[C@H](CO)NC1=O) [Example 453: ((N-Me)G)-IC+SRSLP-(Oic)-I-(Pen)+IP-((S)-3-(1-Pyrrolidine-2-yl)-propionic acid)-OH] | fulfilled
* ICSRSLP[Oic]I[Pen]IP-NH2 (disulfide 2-10; N-terminus assumed; SMILES CC[C@H](C)[C@H](N)C(=O)N[C@H]1CSSC(C)(C)[C@@H](C(=O)N[C@H](C(=O)N2CCC[C@H]2C(N)=O)[C@@H](C)CC)NC(=O)[C@H]([C@@H](C)CC)NC(=O)[C@@H]2C[C@@H]3CCCC[C@@H]3N2C(=O)[C@@H]2CCCN2C(=O)[C@H](CC(C)C)NC(=O)[C@H](CO)NC(=O)[C@H](CCCNC(=N)N)NC(=O)[C@H](CO)NC1=O) [Example 336: IC+SRSLP-(Oic)-I-(Pen)+IP-NH2] | not fulfilled
